# melting point annotations
measured.parameter: melting point

> print(dat)
                                   molecule  observed.measurement
1  CCCCc1nc(C(C)(C)O)c(C(=O)O)n1Cc1ccc(-c2ccccc2C(=O)OC(C)(C)C)cc1         158 to 159 °C
2  O=c1[nH]c2ccccc2c2c(CCC3CCNCC3)n(-c3ccccc3)nc12         250 to 252 °C
3  Cc1cc2c(s1)SCC1CC(=O)N(c3ccc(Cl)cc3)N=C21 (stereo not given)         142 to 144 °C
4             CS(=O)(=O)Nc1ccc(OC2CCCC2)cc1         140 to 142 °C
5  COc1nn(-c2ccnc(N[C@H]3CC[C@H](O)CC3)n2)c2ccccc12         202 to 205 °C

###

This section presents molecules with their documented melting point values.
measured.parameter: melting point

> print(dat)
                                    molecule  measured.parameter  observed.measurement
 1  Cc1c(C(=O)CC(C)C)cc2c(c1C)OC(C(=O)O)C2 (configuration not stated)       melting point                117 °C
 2  CCCCc1nc2c(N)nc3ccccc3c2n1CCCC(=NOC)c1ccccc1       melting point         198 to 200 °C
 3  COc1ccc(Nc2nc(Nc3cc4c(cc3OC)CCN(CC(=O)N(C)C)CC4)ncc2Cl)c(OC)n1       melting point           67 to 76 °C
 4                COc1c(N=[N+]=[N-])ccnc1C#N       melting point                102 °C
 5           COC(=O)c1ccc(-n2c(C)ccc2C#N)cc1       melting point         118 to 119 °C
 6  COc1ccc(C#CC(C)N(O)C(N)=O)o1 (configuration not stated)       melting point                131 °C
 7  CCN(CC)C(=O)COC(=O)CCNC(=O)[C@H](Cc1ccc(-c2ccccc2)cc1)NCP(=O)(Oc1ccccc1)Oc1ccccc1       melting point           68 to 74 °C
 8  CCOC(=O)c1cc(NCc2ccccc2)c(Sc2ccccc2C)c(S(N)(=O)=O)c1       melting point         166 to 167 °C
 9                  Cc1ccc(C)n1Nc1ccc(Cl)nn1       melting point         173 to 175 °C
10  O=C(NC(=O)c1cc(F)c(F)cc1Cl)Nc1ccc(C(=O)O)cc1OC(F)(F)F       melting point                236 °C
11         CC(C)c1cc(C(C)C)c2nc[nH]c(=O)c2c1       melting point         164 to 165 °C
12              CSc1cc2c(cn1)c(=O)n1nccc1n2C       melting point                267 °C
13  N#Cc1nn(-c2c(Cl)cc(C(F)(F)F)cc2Cl)cc1-c1occc1Br       melting point          99 to 101 °C
14  CCCN(C1CC(C)(C)Oc2ccc(O)cc21)S(=O)(=O)CC (configuration not stated)       melting point         173 to 175 °C
15  O=C1CC(c2ccc(O)cc2)Oc2cc(O)c(C3OC(CO)C(O)C(O)C3O)c(O)c21 (configuration not stated)       melting point         195 to 196 °C
16    Cc1ccc(-c2[nH]c(C3CCCCC3)nc2C(=O)O)cc1       melting point         205 to 206 °C
17  CCOC(=O)c1c(N2CCN(C(=O)c3cccs3)CC2)c2sccc2n(Cc2cccc(F)c2)c1=O       melting point          95 to 113 °C
18                        O=c1cc(Cl)cc(Cl)o1       melting point           43 to 45 °C
19  CCOCc1nc2c(N)nc3ccccc3c2n1CCC(=O)N1CCOCC1       melting point         187 to 189 °C
20  COc1ccc(-c2ccc(N3CCCN(c4ccc(-c5ccc(OC)cc5)cn4)CC3)nc2)cc1       melting point         254 to 256 °C
21  CS(=O)(=O)c1ccc(-n2nc(C(F)(F)F)cc2-c2ccc(-c3ccco3)cc2F)cc1F       melting point         156 to 160 °C
22         O=c1cc(-c2ccncc2)nc2n1CC(F)(F)CN2       melting point         239 to 240 °C
23        NCCOc1cc(-c2ccccn2)nc(-c2ccccn2)c1       melting point         134 to 137 °C
24  CCS(=O)(=O)c1cc(C(=O)NCC2CCCN2CCC2CC2)c(OC)cc1N (configuration not stated)       melting point                209 °C
25  CCOc1cc(N(CC)CC)ccc1C(=O)c1nc2ccccc2nc1C(=O)O       melting point         175 to 176 °C
26     Nc1ncc(-c2ccc(=O)[nH]n2)c(-c2ccco2)n1       melting point         262 to 268 °C
27  N#CC1CN1C(=O)NC(=O)c1ccc2ccccc2c1 (configuration not stated)       melting point         164 to 166 °C
28          C=CCc1c(O)ccc2ccc(OCC(=O)OC)cc12       melting point         128 to 130 °C
29                     O=C(O)C=CC(=O)c1cccs1       melting point         139 to 142 °C
30      Cc1cc(Nc2ccccc2C(=O)O)n(Cc2ccncc2)n1       melting point         235 to 238 °C
31        NS(=O)(=O)c1c(C(F)F)nsc1OCC(F)(F)F       melting point         102 to 104 °C
32             CCCCCCCCCCN(O)C(=O)NCCC(=O)OC       melting point           77 to 78 °C
33  O=C(NCc1ccc(F)cc1)c1nc2n(c(=O)c1O)CCN2Cc1ccccc1       melting point                225 °C
34  CCn1c(=O)c2c(nc(/C=C/c3ccc(OC)c(OC(C)=O)c3)n2C)n(CC)c1=O       melting point         241 to 242 °C
35  O=C(N[C@@H]1CCNC[C@H]1O)c1ccccc1 (relative stereo)       melting point                210 °C
36                    CCOC(=O)c1c(C)c[nH]c1C       melting point           74 to 76 °C
37  O=C(Nc1nccs1)c1c(C(O)CO)nc2c(C(F)(F)F)cccc2c1O (configuration not stated)       melting point                255 °C
38   O=C(O)CCCOc1ccc2nc3[nH]c(=O)[nH]c3cc2c1       melting point              > 320 °C
39  CN1CCOc2cc(-c3cnc4[nH]cc(C(=O)C5(C)CCCCC5)c4n3)ccc21       melting point         243 to 244 °C
40               Nc1nccnc1C(=O)NCCc1ncc[nH]1       melting point         204 to 208 °C
41  CC(C)n1nc(-c2sc(NC(=O)Cn3ccnc3)nc2-c2ccccc2)ccc1=O       melting point         160 to 161 °C
42  COc1ccc(S(=O)(=O)C2(C(=O)NO)CCN(CCCc3ccccc3)CC2)cc1       melting point                143 °C
